# ASSAY_OVERVIEW: Toxicity test, 3H-thymidine incorporation (total DNA synthesis, cell growth)
# Type: cell-based
# CONDITION_NOTES: cells in growth phase (cell line not given); 48 hours treatment, 6 hours 3H-thymidine pulse; highest concentration evaluated 100 μM; read-out: Toxic Conc. (TC50) Cell Growth
// CC50 at 48 h lookup, one value per entry
MEASURE: CC50 at 48 h

>>> result("CCCCCCCCCCCC(=O)NCC(COP(=O)([O-])OCC[N+](C)(C)C)OCC (centres unmarked)")
"> 100 µM"
>>> result("CCCCCCCCCC(=O)NCC(COP(=O)([O-])OCC[N+](C)(C)C)OCC (centres unmarked)")
"> 100 µM"
